Where do these numbers come from? They come from the supplement of paper PMC12042874.

test: amyloid nucleation score (Sup35N fusion, yeast selection) (log enrichment); library NNK3; higher = more nucleation; inactive = no reads after selection;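 note: zero at mode of non-aggregating sequences after 7 days selection at 30°C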
observed_property: amyloid nucleation score

[ask] I have this substance here, `SFSCYCTLLGLSVHYVNPTV` , and I need its recorded amyloid nucleation score.
[reply] 1.82

[ask] Likewise for `AGSPCWSNHHYMTKRDCRFS` ?
[reply] inactive

[ask] Likewise for `FWSLNIQGSNYFLHIVNIGR` ?
[reply] inactive

[ask] Likewise for `CRWNVNNFPHLFITKMMFRY` ?
[reply] inactive

[ask] Likewise for `GRVFRCTPEVFIK` ?
[reply] inactive

[ask] Likewise for `LRGGMIEPNTRRYS` ?
[reply] 1

***
[ask] I have this substance here, `SKKYFVHFILVNNFGVGY` , and I need its recorded amyloid nucleation score.
[reply] inactive

[ask] Likewise for `PWSHSS` ?
[reply] inactive

[ask] Likewise for `CPTIPMVGTF` ?
[reply] inactive

[ask] Likewise for `SNDVCVC` ?
[reply] inactive

[ask] Likewise for `TIPYFQYDVFHKEDNWTGML` ?
[reply] inactive

[ask] Likewise for `PFRNMLGMNPNSQTLRVMVR` ?
[reply] inactive

[ask] Likewise for `FPDIDLLLLWTHQRDRRSWF` ?
[reply] 0.018

[ask] Likewise for `NLPLKFDTFTFLCVRLNSLS` ?
[reply] inactive

[ask] Likewise for `KLPGLFQLCDMCVIGLKNAY` ?
[reply] 0.513
